assay: Solubility of asenapine maleate in water and solvents; format: physicochemical; conditions: ethanol, organic solvent or mixture; EtOH; read-out: ethanol (EtOH) solubility
Where a name gives a salt, the structure may show the parent alone.
parameter: solubility (mg/mL)

1) CN1C[C@@H]2c3ccccc3Oc3ccc(Cl)cc3[C@H]2C1 (racemic) [asenapine maleate] ... 100

====

experiment: pKa of asenapine maleate; format: physicochemical
Counter-ions that a name gives are not always drawn.
parameter: pKa

1. CN1C[C@@H]2c3ccccc3Oc3ccc(Cl)cc3[C@H]2C1 (racemic) [asenapine maleate] ... 8.64

====

assay: Solubility of asenapine maleate in water and solvents; format: physicochemical; conditions: N-methylpyrrolidone, organic solvent or mixture; NMP; read-out: N-methylpyrrolidone (NMP) solubility
Structures can show the parent of a compound that is named as a salt.
parameter: solubility (mg/mL)

1) CN1C[C@@H]2c3ccccc3Oc3ccc(Cl)cc3[C@H]2C1 (racemic) [asenapine maleate] ... 700
